Tested on: BT-549 breast
assay_summary: NCI-60 one-dose screen, 48 h
conditions: 10 µM unless noted
About 83,000 compounds went through this panel and 20% of them were active in at least one assay; those are over-represented in the sample as a whole. Active and inactive are the calls of the source. The calls were made as follows: active = growth percent below 10; inactive = the rest.
Would you mind answering with one of these outcomes? 1 = active, -1 = inactive

Q: Please state the recorded outcome for this compound: CCOc1ccccc1[C@H]1C(C(=O)c2ccc(Cl)cc2)C2(N[C@@H]1c1ccccc1)C(=O)Nc1ccc(Cl)cc12 (some centres undefined)
A: 1

Q: Please state the recorded outcome for this compound: Cc1nc(Nc2ccccn2)sc1C1=NNC(c2ccccc2F)C1 (centres undefined)
A: -1

Q: Please state the recorded outcome for this compound: `Cc1cccc(C)c1Nc1nnc(-c2c[nH]c3ccccc23)o1`
A: -1

Q: Please state the recorded outcome for this compound: `CCCCCCCCc1ccc(C(=O)Nc2ccc(C)cc2C(=O)O)cc1`
A: -1

Q: Please state the recorded outcome for this compound: `COc1ccc(C(=O)/C=C/c2ccc3c(c2)OCCO3)cc1S(N)(=O)=O`
A: -1

Q: Please state the recorded outcome for this compound: `N#C/C(=C/c1ccc(Cl)cc1)c1nnc(NC(=O)c2ccc(-n3c(=O)[nH]c4ccccc4c3=O)cc2)s1`
A: -1

Q: Please state the recorded outcome for this compound: `O=C1Nc2cc(-c3ccc(NS(=O)(=O)c4ccc([N+](=O)[O-])cc4)cc3)ccc2/C1=C/c1ccc[nH]1`
A: 1

Q: Please state the recorded outcome for this compound: `CC(C)(C)c1cc(-c2cc(-c3ccccc3)[nH]c(=O)c2C#N)cc(C(C)(C)C)c1`
A: 1

Q: Please state the recorded outcome for this compound: `Clc1ccc(Nc2nnc(-c3c[nH]c4ccccc34)o2)cc1`
A: -1

====

Record form. Attribute: growth. Fill in for each entry.
System: OVCAR-5 ovarian
assay_summary: NCI-60 one-dose screen, 48 h (100 = growth as untreated, 0 = no growth, -100 = all killed)
conditions: 10 µM unless noted
Compounds without any hit were thinned out: in the full panel of roughly 83,000, 20% have a hit.
Only the number, expressed in %, is required.

Q: Give the measured growth of Cc1cc(C2(c3cc(C)c(OCC(O)CNc4c(C)n(C)n(-c5ccccc5)c4=O)cc3C(C)C)OC(=O)c3ccccc32)c(C(C)C)cc1OCC(O)CNc1c(C)n(C)n(-c2ccccc2)c1=O (stereo not drawn) .
A: 50.9

Q: Give the measured growth of `c1n[nH]cc1-c1nc2ccc3cn[nH]c3c2c2c1CCCC2` .
A: 89.9

Q: Give the measured growth of `COc1ccc(N=Nc2c(N)nn3c(-c4ccc(OC)c(OC)c4)ccnc23)cc1` .
A: 87.1

Q: Give the measured growth of `Nc1cc(-c2c[nH]c3ccc(Cl)cc23)nc2cc(-c3c[nH]c4ccccc34)nn12` .
A: -50.4

Q: Give the measured growth of `c1n[nH]cc1-c1nc2ccc3[nH]ncc3c2c2c1CC1(CCOCC1)CC2` .
A: 87.7

Q: Give the measured growth of CC1CCc2c(sc3nc(SCC(=O)c4cccc(Br)c4)n(-c4ccccc4)c(=O)c23)C1 (stereo not drawn) .
A: 47.8

Q: Give the measured growth of `S=C(Nc1ccc(OCc2nc3ccc(Cl)cc3[nH]2)cc1)NC1CCCCC1` .
A: -12.8

Q: Give the measured growth of `COc1cc(/C=C/C(=O)c2cnn(-c3cc(=O)[nH]c4ccc(Cl)cc34)c2C)cc(OC)c1OC` .
A: -52.3

Q: Give the measured growth of `CC(C)(C)C(=O)c1c2c(c3ccc4c5ccccc5ccc4n13)C(=O)c1ccccc1C2=O` .
A: 116

Q: Give the measured growth of CCN(C(=O)CN1C(=O)/C(=C/c2ccco2)SC1=S)C1CCS(=O)(=O)C1 (stereo not drawn) .
A: 111

Q: Give the measured growth of `COc1cc(NC(=O)CSc2nnc(-c3ccc(-c4nc5ccc(Cl)cc5[nH]4)cc3)o2)cc(OC)c1OC` .
A: 71.4

Q: Give the measured growth of `CCc1ccccc1-c1nc(CN[C@@H]2C[C@@H]3C[C@H]([C@H]2C)C3(C)C)c(C)o1` .
A: -87.4

Q: Give the measured growth of `O=C(CSc1nc2ccccc2c(=O)[nH]1)NNC(=O)c1ccccc1Cl` .
A: 129

Q: Give the measured growth of `N#Cc1c(-c2ccc(F)cc2)nc(SCc2ccc(F)cc2)nc1N1CCNCC1` .
A: 0.484

Q: Give the measured growth of COc1c2c(c(Br)c3c1C(CCc1ccccc1)N(C)CC3)OCO2 (stereo not drawn) .
A: 29.9

Q: Give the measured growth of COc1cc(C2CC(c3ccc(C(F)(F)F)cc3)=Nc3c(N)nc(N)nc3N2)ccc1Oc1nc(Nc2ccc(F)cc2)nc(N(C)C)n1 (stereo not drawn) .
A: 89.1

Q: Give the measured growth of `CCCCC[C@@H]1C/C=C(\C)[C@@H](O)C(C)(C)C(=O)[C@@H](C)/C=C(\C)[C@@H]2C[C@H](O)C[C@](O)(CC(=O)O1)O2` .
A: 78

Q: Give the measured growth of `CC[C@]12C=CCN3CC[C@@]4(c5ccc(OC)cc5N(C)[C@H]4[C@@](O)(C(=O)OC)[C@@H]1OC(=O)CCC[P+](c1ccc(OC)cc1)(c1ccc(OC)cc1)c1ccc(OC)cc1)[C@@H]32` .
A: -96.5

====

Tested on: UO-31 renal
assay_summary: NCI-60 one-dose screen, 48 h (100 = growth as untreated, 0 = no growth, -100 = all killed)
conditions: 1 µM
Compounds without any hit were thinned out: in the full panel of roughly 83,000, 20% have a hit.
Record form. Attribute: growth. Fill in for each entry.
Only the number, expressed in %, is required.

Q: Give the measured growth of `CC/C(=C(/c1ccc(O)cc1)c1ccc(OCCN(C)C(=O)COCCOCCNC(=O)Cc2ccc3c(c2)CN([C@@H]2CCC(=O)NC2=O)C3=O)cc1)c1ccccc1` .
A: 91.6

Q: Give the measured growth of `CC/C(=C(\c1ccc(O)cc1)c1ccc(OCCN(C)C(=O)COCCNC(=O)Cc2ccc3c(c2)CN([C@@H]2CCC(=O)NC2=O)C3=O)cc1)c1ccccc1` .
A: 92

Q: Give the measured growth of `CC/C(=C(/c1ccc(O)cc1)c1ccc(OCCN(C)C(=O)CCOCCNC(=O)Cc2ccc3c(c2)CN([C@@H]2CCC(=O)NC2=O)C3=O)cc1)c1ccccc1` .
A: 92

Q: Give the measured growth of `CC/C(=C(/c1ccc(O)cc1)c1ccc(OCCN(C)C(=O)COCCOCCNC(=O)c2ccc3c(c2)CN([C@@H]2CCC(=O)NC2=O)C3=O)cc1)c1ccccc1` .
A: 87.2

Q: Give the measured growth of `CC/C(=C(\c1ccc(O)cc1)c1ccc(OCCNC)cc1)c1ccccc1` .
A: 90.2

Q: Give the measured growth of `CC/C(=C(\c1ccc(O)cc1)c1ccc(OCCN(C)C(=O)CCOCCNC(=O)c2ccc3c(c2)CN([C@@H]2CCC(=O)NC2=O)C3=O)cc1)c1ccccc1` .
A: 91.9

====

Tested on: HCC-2998 colon
assay_summary: NCI-60 one-dose screen, 48 h (100 = growth as untreated, 0 = no growth, -100 = all killed)
conditions: 10 µM unless noted
About 83,000 compounds went through this panel and 20% of them were active in at least one assay; those are over-represented in the sample as a whole. Calls of active or inactive are those of the source. The calls were made as follows: active = growth percent below 10; inactive = the rest.
Record form. Attribute: growth. Fill in for each entry.

Q: Give the measured growth of COc1cc(C2CC(c3cc(OC)c(OC)c(OC)c3)=Nc3c(N)nc(N)nc3N2)ccc1Oc1nc(Nc2ccc(F)cc2)nc(N(C)C)n1 (stereo not drawn) .
A: 36.8% (inactive)

Q: Give the measured growth of `Cn1cc(-c2cc(N)n3nc(-c4c[nH]c5ccc(Cl)cc45)cc3n2)c2cc(Br)cnc21` .
A: -99% (active)

Q: Give the measured growth of COc1ccc(SC2c3cc(OC)ccc3Oc3nc(N)c(C#N)c(N)c32)cc1 (stereo not drawn) .
A: 117% (inactive)

Q: Give the measured growth of `NC(=O)c1ccc(-c2ccc3ncnc(N4CCc5cc(F)c(Cl)cc54)c3c2)cn1` .
A: 89.7% (inactive)

Q: Give the measured growth of `CN1CCN(CCS(=O)(=O)Nc2cc(-c3ccc4ncnc(Nc5ccc(F)c(Cl)c5)c4c3)cnc2Cl)CC1` .
A: -8.06% (active)

Q: Give the measured growth of `S=C(Nc1ccc(OCc2nc3ccc(Cl)cc3[nH]2)cc1)NC1CCCCC1` .
A: -69.5% (active)

Q: Give the measured growth of CN1C(=O)C(O)(CC(=O)c2cc3ccccc3oc2=O)c2ccccc21 (stereo not drawn) .
A: 109% (inactive)

Q: Give the measured growth of Cc1cc(C2(c3cc(C)c(OCC(O)CNc4c(C)n(C)n(-c5ccccc5)c4=O)cc3C(C)C)OC(=O)c3ccccc32)c(C(C)C)cc1OCC(O)CNc1c(C)n(C)n(-c2ccccc2)c1=O (stereo not drawn) .
A: 36.8% (inactive)

Data provenance is PubChem BioAssay (NCI).
